Where these numbers come from: patent US10494376B2

# experimentalSystem: Full-length PRMT5 enzyme (NCBI Reference sequence NP_006100.2) co-expressed with His6-MEP50 (Homo sapiens (Human), UniProt O14744)
# Sequence (O14744 whole entry): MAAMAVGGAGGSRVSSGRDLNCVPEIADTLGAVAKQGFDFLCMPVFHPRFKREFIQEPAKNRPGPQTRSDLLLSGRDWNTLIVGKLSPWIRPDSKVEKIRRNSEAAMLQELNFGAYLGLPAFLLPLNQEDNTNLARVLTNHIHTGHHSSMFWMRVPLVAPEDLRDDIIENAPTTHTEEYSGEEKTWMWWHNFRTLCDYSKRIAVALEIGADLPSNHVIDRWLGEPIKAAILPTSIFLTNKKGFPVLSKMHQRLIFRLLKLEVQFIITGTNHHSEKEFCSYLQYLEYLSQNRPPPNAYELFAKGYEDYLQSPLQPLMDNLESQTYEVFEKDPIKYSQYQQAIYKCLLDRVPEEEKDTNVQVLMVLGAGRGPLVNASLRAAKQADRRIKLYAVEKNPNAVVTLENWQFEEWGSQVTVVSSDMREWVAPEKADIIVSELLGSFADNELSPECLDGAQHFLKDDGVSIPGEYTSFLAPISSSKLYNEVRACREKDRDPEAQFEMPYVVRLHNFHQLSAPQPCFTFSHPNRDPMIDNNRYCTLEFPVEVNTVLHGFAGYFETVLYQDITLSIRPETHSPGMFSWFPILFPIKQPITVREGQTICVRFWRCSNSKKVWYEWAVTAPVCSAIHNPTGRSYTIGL
# Sequence (Q9BQA1 whole entry partner): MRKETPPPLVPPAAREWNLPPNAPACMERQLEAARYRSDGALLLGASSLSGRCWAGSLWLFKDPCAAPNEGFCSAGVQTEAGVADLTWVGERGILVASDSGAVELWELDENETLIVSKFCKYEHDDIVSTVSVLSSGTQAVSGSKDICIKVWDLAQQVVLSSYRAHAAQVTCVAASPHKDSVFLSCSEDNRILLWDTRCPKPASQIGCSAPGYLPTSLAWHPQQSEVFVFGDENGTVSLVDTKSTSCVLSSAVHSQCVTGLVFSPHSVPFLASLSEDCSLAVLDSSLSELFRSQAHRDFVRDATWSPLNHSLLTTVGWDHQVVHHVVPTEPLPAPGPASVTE
# assay: Revised PRMT5 Biochemical Assay
# conditionDetails: 1 μM peptide substrate, 1 μM S-Adenosyl methionine, 4 hours at 37 degree Celsius, Transcreener EPIGEN fluorescence polarisation
Where a name gives a salt, the structure may show the parent alone.
readoutType: IC50 (µM)
Record the value in µM, omitting the unit from your answer.

{"compound": "CC(=O)N1CCC(Oc2ccccc2C(=O)NC[C@@H](O)[C@@H]2Cc3ccccc3CN2)CC1", "IC50 [µM]": 2.26}
{"compound": "O=C(NC[C@H](O)[C@H]1Cc2ccccc2CN1)c1ccc(C(=O)N2CCOCC2)cc1 [Example 53, hydrochloride]", "IC50 [µM]": 21.2}

Return reported IC50; argument: CCOc1cc(C(=O)N2C3CCC2COC3)ccc1C(=O)NC[C@@H](O)[C@@H]1Cc2ccccc2CN1 [Example 50, hydrochloride]
0.019
